# TARGET_ENTITY: TACE (catalytic domain of the recombinant TACE protein) (Homo sapiens, UniProt P78536)
# Construct: The catalytic domain of the recombinant TACE protein was expressed and purified; made in house
# Sequence (P78536 223-474 limits assumed): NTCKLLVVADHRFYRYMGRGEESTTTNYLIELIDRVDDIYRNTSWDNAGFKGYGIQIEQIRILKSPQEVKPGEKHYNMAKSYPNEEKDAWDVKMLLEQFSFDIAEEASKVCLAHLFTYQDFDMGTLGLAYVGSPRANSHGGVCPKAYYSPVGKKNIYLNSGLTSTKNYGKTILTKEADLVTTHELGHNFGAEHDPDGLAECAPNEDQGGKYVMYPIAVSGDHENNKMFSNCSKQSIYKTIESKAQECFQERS
# TEST_DETAILS: TACE FRET assay using TACE Cat
# Format: biochemical
# CONDITIONS: FRET, pro-TNF-α substrate peptide; read-out: TACE IC50
PROPERTY_MEASURED: IC50 (nM)

# count of solved cases: 3
| COMPOUND | IC50 [nM] |
| --- | --- |
| Cc1cc(COc2ccc(S(=O)(=O)NC3CCN(CCO)CC3C(=O)NO)cc2)c2ccccc2n1 (mixture of isomers) | 3.2 |
| Cc1cc(COc2ccc(S(=O)(=O)N[C@@H]3CN(C(=O)OC(C)(C)C)CCC3C(=O)NO)cc2)c2ccccc2n1 (stereo in doubt) | 0.7 |
| C#CCN1C[C@H](C(=O)NO)[C@H](NS(=O)(=O)c2ccc(OCc3cc(C)nc4ccccc34)cc2)C1 (relative stereo) | 0.7 |

A. Cc1cc(COc2ccc(S(=O)(=O)N[C@H]3[C@@H](C(=O)NO)[C@@H]4C=C[C@H]3C4)cc2)c2ccccc2n1 (relative stereo)
B. Cc1cc(COc2ccc(S(=O)(=O)N[C@@H]3CCC[C@]3(O)C(=O)NO)cc2)c2ccccc2n1
C. Cc1cc(COc2ccc(S(=O)(=O)N[C@@H]3CCOC[C@@]3(C)C(=O)NO)cc2)c2ccccc2n1
rank_up(items): orders items by reported IC50 in ascending numerical order. Response format: the labels, sorted as the prompt asks.
A, B, C
(A: 0.1 nM, B: 0.4 nM, C: 6.2 nM)

Data provenance: patent US7595327B2
